Cited source for all entries: BindingDB's records for patent US12115157

target: G-protein coupled receptor 52 (Homo sapiens, UniProt Q9Y2T5); assay: Homogeneous Time-Resolved Fluorescence (HTRF) Assay
Sequence (Q9Y2T5 whole entry): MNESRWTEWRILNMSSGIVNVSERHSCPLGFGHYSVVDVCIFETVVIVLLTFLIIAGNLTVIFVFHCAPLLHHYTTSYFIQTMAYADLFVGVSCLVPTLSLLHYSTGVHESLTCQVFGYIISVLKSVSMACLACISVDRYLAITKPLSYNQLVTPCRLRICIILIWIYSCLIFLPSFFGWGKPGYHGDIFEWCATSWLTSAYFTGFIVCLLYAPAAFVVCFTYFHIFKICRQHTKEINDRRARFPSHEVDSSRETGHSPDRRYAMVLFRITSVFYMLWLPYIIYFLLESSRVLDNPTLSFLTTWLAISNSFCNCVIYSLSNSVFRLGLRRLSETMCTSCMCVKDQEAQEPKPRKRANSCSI
measured.endpoint: pEC50
To interpret pEC50, take it as minus log10 of a concentration measured in moles per litre.

# pEC50 measured on G-protein coupled receptor 52 (Homo sapiens, UniProt Q9Y2T5) for item CC(=O)N1C[C@@H](NC(=O)c2nccnc2N2CC(Oc3cc(F)c(F)c(F)c3)C2)C(F)(F)C1 [US12115157, Ex. 11a] = 5.89

# value of pEC50, G-protein coupled receptor 52 (Homo sapiens, UniProt Q9Y2T5), item CC(=O)N1C[C@H](NC(=O)c2nccnc2N2CC(Oc3cc(F)c(F)c(F)c3)C2)C(F)(F)C1 [US12115157, Ex. 11b] = 8.00

Response field pEC50 (G-protein coupled receptor 52 (Homo sapiens, UniProt Q9Y2T5)) for item `CC(=O)N1C[C@@H](NC(=O)c2nccnc2N2CC(Oc3ccc(F)c(F)c3)C2)C(F)(F)C1` : 5.96

Item CC(=O)N1C[C@@H](NC(=O)c2nsnc2N2CC(Oc3ccc(F)c(F)c3)C2)C(F)(F)C1 [US12115157, Ex. 13a] was tested on G-protein coupled receptor 52 (Homo sapiens, UniProt Q9Y2T5); the reported pEC50 is 6.23

Param item: `CC(=O)N1C[C@H](NC(=O)c2nccnc2N2CC(Oc3ccc(F)c(F)c3)C2)C(F)(F)C1` ; param system: G-protein coupled receptor 52 (Homo sapiens, UniProt Q9Y2T5); output pEC50: 8.15

Response field pEC50 (G-protein coupled receptor 52 (Homo sapiens, UniProt Q9Y2T5)) for item CC(=O)N1C[C@H](NC(=O)c2nsnc2N2CC(Oc3ccc(F)c(F)c3)C2)C(F)(F)C1 [US12115157, Ex. 13b] : 8.52
